Ref: PubChem BioAssay (NCI)

Test system: K-562 leukemia
Assay: NCI tumour cell line growth inhibition, 48 h
Parameter TGI: see the listing below.

// below: answered compounds
COc1cccc(CC(C)N)c1 (centres undefined); > 100 µM
COC(=O)C([C@H]1CC[C@H](OCc2ccccc2)[C@@]1(O)COCc1ccccc1)C(C)(O)CCc1ccccc1 (some centres undefined); 35.5 µM

Query: Please look up its TGI: SCCCSCCSCCCSCCS
Result: > 100 µM

Query: What would you report for COc1cc2c(c(OC)c1OC)-c1ccc(SC)c(=O)cc1[C@@H](OC(=O)c1ccncc1)CC2 ?
Result: > 100 µM

Query: Try CCCCOC(=O)NC(c1ccccc1)C(O)C(=O)OC1C[C@@]2(O)C(OC(=O)c3ccccc3)C3[C@](C)(C(=O)[C@H](OC(C)=O)C(=C1C)C2(C)C)[C@@H](O)C[C@H]1OC[C@@]31OC(C)=O (some centres undefined) next.
Result: > 10 µM

Query: Let us now turn to COc1cc(NC(=O)c2ccc(C(F)(F)F)nc2Nc2ccc(Cl)cc2C)cc(OC)c1OC
Result: > 100 µM

Query: Same for Cn1c2ccccc2c2ccc3c(c21)C(=O)C=CC3=O
Result: > 45.1 µM

Query: Same read-out for CN1CCN(CCCCN2c3ccccc3Sc3ccc(C(=O)c4ccccc4)cc32)CC1 ?
Result: 2.79 µM

Query: Now this one: CC(C)OP(=O)(c1ccccc1)c1ccc2c(c1)OCCOCCOCCOCCO2 (centres undefined)
Result: > 100 µM
